Measured values drawn from ChEMBL document CHEMBL5291721 for this set.

target: Histamine H1 receptor (Homo sapiens, UniProt P35367); further: assay procedure not described here
Sequence (P35367 whole entry): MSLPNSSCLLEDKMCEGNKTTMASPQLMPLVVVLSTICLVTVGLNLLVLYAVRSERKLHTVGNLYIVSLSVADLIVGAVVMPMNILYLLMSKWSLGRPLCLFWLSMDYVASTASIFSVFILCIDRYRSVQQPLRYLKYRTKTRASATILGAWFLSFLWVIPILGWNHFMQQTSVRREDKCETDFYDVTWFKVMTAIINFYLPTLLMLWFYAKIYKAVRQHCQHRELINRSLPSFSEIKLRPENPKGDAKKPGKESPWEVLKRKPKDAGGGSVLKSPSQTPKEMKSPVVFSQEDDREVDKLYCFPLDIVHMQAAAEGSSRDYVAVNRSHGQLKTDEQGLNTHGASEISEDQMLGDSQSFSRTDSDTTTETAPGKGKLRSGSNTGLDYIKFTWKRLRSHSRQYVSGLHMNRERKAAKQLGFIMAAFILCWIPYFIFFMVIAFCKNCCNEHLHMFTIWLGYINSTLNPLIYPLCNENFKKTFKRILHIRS
The reader will find reported AC50 values listed item by item below.

Worked cases, answers included:
CCN(CC)CCOC(=O)c1ccc(N)cc1Cl :: > 30 µM
N#Cc1ccccc1-c1cc(-c2ccccn2)cn(-c2ccccc2)c1=O :: > 30 µM
CC(C)c1cc2c(cc1S(=O)(=O)O)[C@@]1(C)CCC[C@@](C)(C(=O)O)[C@@H]1CC2 :: > 30 µM
CC(NCCc1ccc(O)cc1)C(O)c1ccc(O)cc1 (stereo not drawn) :: > 30 µM
CCOc1cc(CC(=O)N[C@@H](CC(C)C)c2ccccc2N2CCCCC2)ccc1C(=O)O [REPAGLINIDE] :: > 30 µM
NC(=O)CCC/N=C(\c1ccc(Cl)cc1)c1cc(F)ccc1O [PROGABIDE] :: > 10 µM

Request: I'm curious: which AC50 was measured for C[C@]1(COc2ccc(N3CCC(Oc4ccc(OC(F)(F)F)cc4)CC3)cc2)Cn2cc([N+](=O)[O-])nc2O1 tested on Histamine H1 receptor (Homo sapiens, UniProt P35367)?; further: assay procedure not described here
Result: > 10 µM

Request: Fill in the recorded AC50 for this molecule, with Histamine H1 receptor (Homo sapiens, UniProt P35367) as test system: CC(=O)Oc1ccccc1C(=O)Nc1ncc([N+](=O)[O-])s1 [NITAZOXANIDE]
Result: > 30 µM

Request: GET /values?readout=AC50&system=Histamine H1 receptor (Homo sapiens, UniProt P35367)&item= CCCCC1(CC)C(=O)NC(=O)NC1=O; further: assay procedure not described here
Result: > 30 µM

Request: Field: AC50 (Histamine H1 receptor (Homo sapiens, UniProt P35367)). Entry: CC(C)C[C@H](CN)CC(=O)O
Result: > 30 µM

Request: Please tell me: AC50 of Clc1ccc2c(c1)C(c1ccccc1)=NCc1nncn1-2 , system Histamine H1 receptor (Homo sapiens, UniProt P35367)?; further: assay procedure not described here
Result: > 10 µM

Request: Report AC50 for Cc1cc2nc3c(=O)[nH]c(=O)nc-3n(C[C@H](O)[C@H](O)[C@H](O)COP(=O)(O)O)c2cc1C [RIBOFLAVIN 5'-PHOSPHATE] tested on Histamine H1 receptor (Homo sapiens, UniProt P35367). Further: assay procedure not described here.
Result: > 30 µM

Request: Provide the documented AC50 with Histamine H1 receptor (Homo sapiens, UniProt P35367) as the system for O=C1Nc2ccc(Cl)cc2C(c2ccccc2)=NC1O (stereo not drawn)
Result: > 10 µM

Request: // map O=C1CN=C(c2ccccc2)c2cc(Cl)ccc2N1 to recorded AC50 (system: Histamine H1 receptor (Homo sapiens, UniProt P35367)); further: assay procedure not described here
Result: > 10 µM

###

target: Cannabinoid receptor 1 (Homo sapiens, UniProt P21554); format: functional; further: assay procedure not described here
Sequence (P21554 whole entry): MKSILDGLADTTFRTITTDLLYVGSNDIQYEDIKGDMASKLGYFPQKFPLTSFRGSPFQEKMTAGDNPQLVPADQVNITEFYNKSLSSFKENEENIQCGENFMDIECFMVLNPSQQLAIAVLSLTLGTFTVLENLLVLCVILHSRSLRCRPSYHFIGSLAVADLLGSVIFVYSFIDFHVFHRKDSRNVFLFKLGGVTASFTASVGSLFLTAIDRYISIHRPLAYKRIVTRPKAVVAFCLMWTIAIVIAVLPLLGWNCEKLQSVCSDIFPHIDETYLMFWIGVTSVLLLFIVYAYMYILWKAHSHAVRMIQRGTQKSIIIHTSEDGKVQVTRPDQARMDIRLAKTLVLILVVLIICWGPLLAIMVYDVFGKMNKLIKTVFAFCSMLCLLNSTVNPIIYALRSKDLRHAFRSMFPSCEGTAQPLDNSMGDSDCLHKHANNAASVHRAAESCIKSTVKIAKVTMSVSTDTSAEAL
MEASURED_QUANTITY: AC50

O=C1Nc2ccc(Cl)cc2C(c2ccccc2)=NC1O (configuration not stated) :: > 10 µM
CC1(C)O[C@@H]2[C@@H](CO[C@@]3(COS(N)(=O)=O)OC(C)(C)O[C@@H]23)O1 [TOPIRAMATE] :: > 10 µM
Cc1cnc(NC(=O)C2=C(O)c3ccccc3S(=O)(=O)N2C)s1 :: > 10 µM
O=C1CN=C(c2ccccc2)c2cc(Cl)ccc2N1 :: 0.0006 µM
CCn1cc(C(=O)O)c(=O)c2cc(F)c(N3CCNCC3)nc21 :: > 10 µM

Request: Param item = COC1=C(OC)C(=O)C(CCCCCCCCCCO)=C(C)C1=O ; retrieve measured AC50.
Result: > 10 µM

Request: Query (compound): CNC[C@H](O)c1cccc(O)c1 ; field requested: AC50
Result: > 10 µM
